These data points were gathered from patent US10960004B2.

# METHOD DESCRIPTION: Pharmacokinetics of FTD and TPI in plasma of solid cancer patients given FTD/TPI combination drug, by renal function cohort
# Format: in vivo, human
# PARTICULARS: human, plasma, po, 35 mg/m2, Day 12; Cohort 2: moderate renal impairment (CLcr 30 to 59 mL/min); 35 mg/m^2 per once as FTD, oral, twice a day; plasma; mean; read-out: AUC0-12
# AUC(0-t) per entry
Write the value in ng·h/mL as a bare number.

1) Cl.N=C1CCCN1Cc1[nH]c(=O)[nH]c(=O)c1Cl [TPI] = 602

// moving on: another record for AUC(0-t)
QUERY: Item O=c1[nH]c(=O)n([C@H]2C[C@H](O)[C@@H](CO)O2)cc1C(F)(F)F [FTD, α,α,α-trifluorothymidine] has what recorded AUC(0-t)?
RESULT: 30400
